Each entry below carries its recorded IC50.
Target: secreted soluble GalNAc-T4 (sT4) (Homo sapiens, UniProt Q8N4A0)
Construct: using the GalNAc-T4-sol construct that encodes residues 32-578 inserted into pT7T3U19; 6xHis (N); thrombin cleavage site (N); T7 tag (N); made in house; host or cells: High Five insect cells (baculovirus)
Experiment: Direct binding ELISA to GalNAc-MUC1 glycopeptide, competitive inhibition, sT4
Details: binding to GalNAc-MUC1 glycopeptide
reported.property: IC50

In [3]: df
Out[3]:
                                   compound                                       tgt  observed_measurement
0  CC(=O)N[C@H]1[C@@H](OCc2ccccc2)O[C@H](CO)[C@@H](O)[C@@H]1O  secreted soluble GalNAc-T4 (sT4) (Homo sapiens, UniProt Q8N4A0)              > 100 mM
1  CC(=O)N[C@H]1[C@H](OCc2ccccc2)O[C@H](CO)[C@@H](O)[C@@H]1O  secreted soluble GalNAc-T4 (sT4) (Homo sapiens, UniProt Q8N4A0)              > 100 mM
2  COC1O[C@H](CO)[C@H](O)[C@H](O)[C@H]1O (single isomer, unassigned)  secreted soluble GalNAc-T4 (sT4) (Homo sapiens, UniProt Q8N4A0)                 40 mM
3  CC(=O)N[C@H]1[C@H](Oc2ccccc2[N+](=O)[O-])O[C@H](CO)[C@H](O)[C@@H]1O  secreted soluble GalNAc-T4 (sT4) (Homo sapiens, UniProt Q8N4A0)                  1 mM

###

Target: secreted soluble GalNAc-T2 (sT2) (Homo sapiens)
Construct: HIS-tagged secreted human GalNAc-T2 and -T4 were prepared from pAC-GP67-T2-sol and pAC-GP67-T4-sol cDNA; 6xHis (N); thrombin cleavage site (N); T7 tag (N); made in house; host or cells: High Five insect cells (baculovirus)
Assay: Direct binding ELISA to GalNAc-MUC1 glycopeptide, competitive inhibition, sT2
pIC50: −log10 of the molar value.
reported.property: pIC50

                                   molecule                                       tgt  observed_measurement
0  COC1O[C@H](CO)[C@H](O)[C@H](O)[C@H]1O (single isomer, unassigned)  secreted soluble GalNAc-T2 (sT2) (Homo sapiens)                < 1.00
1  CC(=O)N[C@H]1[C@H](OCc2ccccc2)O[C@H](CO)[C@@H](O)[C@@H]1O  secreted soluble GalNAc-T2 (sT2) (Homo sapiens)                < 1.00
2  CC(=O)N[C@H]1[C@@H](OCc2ccccc2)O[C@H](CO)[C@@H](O)[C@@H]1O  secreted soluble GalNAc-T2 (sT2) (Homo sapiens)                < 1.00

###

Target: Helix Pomatia lectin (HPA) (Helix pomatia)
pIC50: −log10 of the molar value.
reported.property: pIC50

                                   compound  reported_property  readout_qualifier  observed_measurement
0  CC(=O)N[C@H]1C(O)O[C@H](CO)[C@@H](O)[C@@H]1O (stereo partly drawn)              pIC50                  =                  2.10
1  CC(=O)N[C@H]1[C@@H](OCc2ccccc2)O[C@H](CO)[C@@H](O)[C@@H]1O              pIC50                  =                  2.70
2  CC(=O)N[C@H]1[C@H](Oc2ccc([N+](=O)[O-])cc2)O[C@H](CO)[C@H](O)[C@@H]1O              pIC50                  <                  1.70
3  CC(=O)N[C@H]1[C@H](Oc2ccccc2[N+](=O)[O-])O[C@H](CO)[C@H](O)[C@@H]1O              pIC50                  <                  1.70
4  CO[C@H]1O[C@H](CO)[C@H](O)[C@H](O)[C@H]1O              pIC50                  <                  1.00
5  CC(=O)N[C@H]1[C@@H](Oc2ccccc2)O[C@H](CO)[C@H](O)[C@@H]1O              pIC50                  =                  3.00
6  CC(=O)N[C@H]1[C@H](OCc2ccccc2)O[C@H](CO)[C@@H](O)[C@@H]1O              pIC50                  <                  1.70
7  O=c1ccn([C@@H]2O[C@H](COP(=O)(O)OP(=O)(O)O)[C@@H](O)[C@H]2O)c(=O)[nH]1              pIC50                  <                  1.00
8  CC(=O)N[C@H]1[C@@H](OCc2ccccc2)O[C@H](CO)[C@H](O)[C@@H]1O              pIC50                  =                  3.30
